Tested on: HeLa human cervical carcinoma cells (CCL-2)
Measurement Description: cellular potency in HeLa cells
Format: cell-based
Measurement Setup: Homo sapiens, HeLa, read-out: IC50 value (cellular potency)
Reported Metric: pIC50
Give bare numbers, as −log10 of the molar value.

Enquiry: Consider the compound shown here: COc1cc(F)ccc1-c1ncnc(Nc2cccc(C[S@](C)(=N)=O)c2)n1 [atuveciclib, reference compound] What is its recorded pIC50?
Return: 6.52
